- system name: Liver carboxylesterase 1 (Homo sapiens, UniProt P23141)
- Sequence (P23141 whole entry): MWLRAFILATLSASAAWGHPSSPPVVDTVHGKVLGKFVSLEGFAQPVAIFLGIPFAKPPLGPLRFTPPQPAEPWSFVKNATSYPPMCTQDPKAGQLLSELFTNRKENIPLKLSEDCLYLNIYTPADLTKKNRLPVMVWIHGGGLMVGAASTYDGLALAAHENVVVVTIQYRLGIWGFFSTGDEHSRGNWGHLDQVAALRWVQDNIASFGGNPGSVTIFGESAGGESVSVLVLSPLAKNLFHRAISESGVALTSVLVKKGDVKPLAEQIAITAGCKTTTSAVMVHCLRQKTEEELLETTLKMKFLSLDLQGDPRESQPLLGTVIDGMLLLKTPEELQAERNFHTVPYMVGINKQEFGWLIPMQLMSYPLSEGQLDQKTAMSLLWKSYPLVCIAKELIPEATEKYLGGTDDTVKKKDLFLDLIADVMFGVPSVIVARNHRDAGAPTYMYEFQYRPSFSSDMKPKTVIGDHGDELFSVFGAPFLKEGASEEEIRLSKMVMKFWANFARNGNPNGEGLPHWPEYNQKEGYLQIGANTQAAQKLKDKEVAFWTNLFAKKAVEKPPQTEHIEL
- assay notes: Activity at human recombinant CES1 expressed in baculovirus-infected Spodoptera frugiperda Sf21 cells assessed as substrate hydrolysis by fluorescence assay
endpoint label: pKm
# answer = number (no unit)

Sample records with pKm:
* N[C@@H](Cc1ccccc1)C(=O)OC[C@H]1O[C@@H](n2cc(F)c(=O)[nH]c2=O)C[C@@H]1O | 3.34
* COC(=O)[C@@H](c1ccccc1)[C@@H]1CCCCN1 | 4.05
* COC(=O)[C@H](c1ccccc1Cl)N1CCc2sccc2C1 | 4.25

Fill in pKm for record COc1ccc2cc([C@H](C#N)OC(=O)[C@H]3[C@@H](C=C(Cl)Cl)C3(C)C)ccc2c1
5.82

Fill in pKm for record COc1ccc2cc([C@@H](C#N)OC(=O)[C@@H]3[C@@H](C=C(Cl)Cl)C3(C)C)ccc2c1
6.15

Fill in pKm for record CCOC(=O)[C@H](CCc1ccccc1)N[C@H]1CCCN2CCC[C@@H](C(=O)O)N2C1=O
2.89

Fill in pKm for record CC(=O)Oc1ccc([N+](=O)[O-])cc1 [4-NITROPHENYL ACETATE]
3.44

Fill in pKm for record COc1ccc2cc(C(C#N)OC(=O)C3C(C)(C)C3(C)C)ccc2c1 (stereo not given)
5.82

Fill in pKm for record CC1(C)[C@H](C(=O)OCc2cccc(Oc3ccccc3)c2)[C@@H]1C=C(Cl)Cl
4.62

Fill in pKm for record COc1ccc2cc([C@@H](C#N)OC(=O)[C@H]3[C@H](C=C(Cl)Cl)C3(C)C)ccc2c1
5.62

Fill in pKm for record CC1(C)[C@@H](C=C(Cl)Cl)[C@@H]1C(=O)OCc1cccc(Oc2ccccc2)c1 (stereo in doubt)
5.01

Fill in pKm for record CC(=O)O[C@H]1C=C[C@H]2[C@H]3Cc4ccc(O)c5c4[C@@]2(CCN3C)[C@H]1O5
2.08

Fill in pKm for record CCOC(=O)C1=C[C@@H](OC(CC)CC)[C@H](NC(C)=O)[C@@H](N)C1
3.75

Fill in pKm for record COc1ccc2cc([C@@H](C#N)OC(=O)[C@H]3[C@@H](C=C(Cl)Cl)C3(C)C)ccc2c1
5.85

Fill in pKm for record CN(C)C(=O)COC(=O)Cc1ccc(OC(=O)c2ccc(NC(=N)N)cc2)cc1
3.15

Fill in pKm for record CCOC(=O)[C@H](CCc1ccccc1)N[C@@H](C)C(=O)N(CC(=O)O)C1Cc2ccccc2C1
2.82

Fill in pKm for record CCCC(=O)Oc1ccc([N+](=O)[O-])cc1
3.89

Fill in pKm for record CCOC(=O)[C@H](CCc1ccccc1)N[C@H]1CS[C@H](c2cccs2)CN(CC(=O)O)C1=O
3.1

Fill in pKm for record COc1ccc2cc([C@H](C#N)OC(=O)[C@H]3[C@H](C=C(Cl)Cl)C3(C)C)ccc2c1
5.72

Fill in pKm for record COc1ccc2cc([C@H](C#N)OC(=O)[C@@H]3[C@H](C=C(Cl)Cl)C3(C)C)ccc2c1
6.52

Fill in pKm for record N[C@@H](CC(=O)O)C(=O)OC[C@H]1O[C@@H](n2cc(F)c(=O)[nH]c2=O)C[C@@H]1O
2.52
